For each record, write down the corresponding speed of sound.
# study_conditions: 310.65 K; 101 kPa; Liquid; Single path-length method
Field: numeric (m/s). Do not append units.

Using the record for CC(C)CC(C)(C)C [2,2,4-trimethylpentane] , report its speed of sound. 1030.2

One more molecule: c1ccccc1 [benzene] 1240.7

Continue with CCc1ccccc1 [ethylbenzene] 1266.5

Next up: Cc1ccccc1 [toluene] 1249.8

// same read-out, input: CC(C)(C)O [2-methylpropan-2-ol] 1067.2

---

Assignment: determine reported speed of sound for the given compounds.
# study_conditions: 315.65 K; 101 kPa; Liquid; Single path-length method
Express the result in m/s but write the number alone.

Returns the measured speed of sound for the input compound. Input: CC(C)(C)O [2-methylpropan-2-ol] 1046.1

Note, next up: Cc1ccccc1 [toluene] 1228.6

Also CCc1ccccc1 [ethylbenzene] ? 1246.1

And the next one, CC(C)CC(C)(C)C [2,2,4-trimethylpentane] ? 1009.7

Same again, this time with c1ccccc1 [benzene] 1217.9
